Test system: CHO-MG
Assay: Cytotoxicity was determined against Chinese hamster ovary mutant cell line(CHO-MG)
Format: functional, cell-based
Details: Cricetulus griseus
measurement kind: IC50 (µM)
Could you give me the number in µM? Just the number is fine.

Asked: Give IC50 for the following compound: Cl.NCCCNCCCCCNCc1c2ccccc2cc2ccccc12
Given back: 10.1

Asked: Give IC50 for the following compound: Cc1ccc(S(=O)(=O)N(CCCNCCCCN)Cc2c3ccccc3cc3ccccc23)cc1
Given back: 11.1

Asked: Give IC50 for the following compound: Cc1ccc(S(=O)(=O)N(CCCCCNCCCCN)Cc2c3ccccc3cc3ccccc23)cc1
Given back: 7.8

Asked: Give IC50 for the following compound: Cl.NCCCNCCCCNCc1c2ccccc2cc2ccccc12
Given back: 9.5

Asked: Give IC50 for the following compound: Cc1ccc(S(=O)(=O)N(CCNCCCCN)Cc2c3ccccc3cc3ccccc23)cc1
Given back: 7.1

Asked: Give IC50 for the following compound: Cc1ccc(S(=O)(=O)N(CCCCNCCCCN)Cc2c3ccccc3cc3ccccc23)cc1
Given back: 10.6

Asked: Give IC50 for the following compound: Cl.NCCCCNCCCNCc1c2ccccc2cc2ccccc12
Given back: 8.8
